test: RP, Waters XBridge C18, 50 × 2.1 mm, 3.5 µm, 30 °C, 0.2 mL/min, estimated dead time 0.55 min; A: water + 0.1% formic acid, pH 3; B: methanol + 0.1% formic acid, pH 3; gradient (min/%B) 0/10 4/50 17/95 25/95 25.1/10 30/10; conditions: stereoisomer not certain
So I've got a bunch of molecules here, and I need their LC retention time values.
Write the numeric value and append its unit.

Lookup: Would you kindly share the measured LC retention time for COc1ccc2c3c1OC1C(O)C=CC4C(C2)N(C)CCC341 (stereo not drawn) ?
Found: 2.8 min

Lookup: # repeat for O=C1CCC2(O)C3Cc4ccc(O)c5c4C2(CCN3CC2CC2)C1O5 (stereo not drawn) [Naltrexone]
Found: 3.1 min

Lookup: # repeat for NC(=O)c1c(Cl)cccc1Cl [2,6-Dichlorobenzamide]
Found: 4 min

Lookup: # repeat for C=C1CC2C(CCC3(C)C(=O)CCC23)C2(C)C=CC(=O)C=C12 (stereo not drawn)
Found: 10.1 min

Lookup: # repeat for COc1cccc(C(=O)NN(C(=O)c2cc(C)cc(C)c2)C(C)(C)C)c1C [Methoxyfenozide]
Found: 10.9 min

Lookup: # repeat for CC(C)c1ccc(NC(N)=O)cc1
Found: 8 min

Lookup: # repeat for CCCN(CC)CC1COC2(CCC(C(C)(C)C)CC2)O1 (stereo not drawn)
Found: 10.1 min

Lookup: # repeat for O=C(O)C(F)(F)C(F)(F)C(F)(F)C(F)(F)C(F)(F)C(F)(F)F
Found: 11.1 min

Lookup: # repeat for CCOCN(C(=O)C(=O)O)c1c(C)cccc1CC
Found: 7.5 min

Lookup: # repeat for O=C(O)c1ccccc1Nc1cccc(C(F)(F)F)c1
Found: 14.6 min

Lookup: # repeat for CC(O)C(=O)Nc1c(I)c(C(=O)NC(CO)CO)c(I)c(C(=O)NC(CO)CO)c1I (stereo not drawn)
Found: 1.2 min

Lookup: # repeat for C[Si](Cn1cncn1)(c1ccc(F)cc1)c1ccc(F)cc1
Found: 12.4 min

Lookup: # repeat for CNCC(c1ccc(O)cc1)C1(O)CCCCC1 (stereo not drawn)
Found: 4.9 min

Lookup: # repeat for O=C(O)C(c1ccccc1Cl)N1CCc2sccc2C1 (stereo not drawn)
Found: 5.7 min

Lookup: # repeat for CC(Oc1ccc(Oc2ccc(C(F)(F)F)cn2)cc1)C(=O)O (stereo not drawn)
Found: 10.9 min

Lookup: # repeat for CNC(=N[N+](=O)[O-])NCc1cnc(Cl)s1
Found: 4.9 min

Lookup: # repeat for COC=C(C(=O)O)c1ccccc1Oc1cc(Oc2ccccc2C#N)ncn1 [Azoxystrobin (free acid)]
Found: 8.8 min

Lookup: # repeat for COc1ccc(C(CN)C2(O)CCCCC2)cc1 (stereo not drawn)
Found: 6.3 min
